Read-out record for HIS-TGFβR2 WT (Homo sapiens, UniProt P37173): pIC50
pIC50 here: minus log base 10 of the concentration, concentration in moles per litre.

Query string: Given the compound `CC(=O)Nc1cc(Nc2nc(-c3ccccn3)nc3[nH]cnc23)ccn1` , what is its reported pIC50?
Result string: 6.85

Query string: Same thing, different compound: `CC(=O)Nc1cc(Nc2nc(-c3ccc(F)c(C)n3)nc3[nH]cnc23)ccn1`
Result string: 6.54

Query string: And what about the compound `CC(=O)Nc1cc(Nc2nc(-c3cccc(C(F)F)n3)nc3[nH]cnc23)ccn1` ?
Result string: 6.28

Query string: Next entry: `O=C(Nc1cc(Nc2nc(-c3cccc(C(F)(F)F)n3)nc3[nH]cnc23)ccn1)C1CC1`
Result string: 6.33

---

- system-under-test: HIS-TGFβR1 T204D (Homo sapiens, UniProt P36897, T204D)
- Sequence (P36897 34-503 T204D): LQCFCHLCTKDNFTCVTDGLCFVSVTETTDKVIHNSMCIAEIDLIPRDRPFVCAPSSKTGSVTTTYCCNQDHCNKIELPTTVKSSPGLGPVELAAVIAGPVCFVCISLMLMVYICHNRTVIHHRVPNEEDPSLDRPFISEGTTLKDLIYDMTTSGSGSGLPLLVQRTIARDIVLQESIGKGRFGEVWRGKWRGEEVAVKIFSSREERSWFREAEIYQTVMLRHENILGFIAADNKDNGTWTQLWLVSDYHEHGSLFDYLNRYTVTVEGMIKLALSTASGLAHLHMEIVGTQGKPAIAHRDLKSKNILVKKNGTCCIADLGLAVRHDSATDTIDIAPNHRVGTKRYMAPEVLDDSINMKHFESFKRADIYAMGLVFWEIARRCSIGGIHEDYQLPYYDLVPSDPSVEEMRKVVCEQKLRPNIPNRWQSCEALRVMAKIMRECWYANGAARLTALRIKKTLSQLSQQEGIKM
- assay-method-text: HTRF probe displacement assay, TGFβR1 HIS T204D
- applied-conditions: 1 nM HIS-TGFβR1 T204D, labeled probe at Kd, 1 hour at room temperature
endpoint-label: pIC50
To interpret pIC50, take it as minus log10 of a concentration measured in moles per litre.

> print(dat)
                                   molecule  observed.result
1  O=C(Nc1cc(Nc2nc(-c3cccc(C(F)(F)F)n3)nc3[nH]cnc23)ccn1)C1CC1             9.25
2  Cc1nc2c(Nc3ccncc3F)nc(-c3cccc(C(F)(F)F)n3)nc2[nH]1             8.28
3  COC(=O)Nc1cc(Nc2nc(-c3cccc(C(F)(F)F)n3)nc3[nH]cnc23)ccn1             8.70
4  Cc1nc(-c2nc(Nc3ccncc3F)c3nc[nH]c3n2)ccc1F             9.44
5  CC(=O)Nc1cc(Nc2nc(-c3cccc(C(F)(F)F)n3)nc3[nH]c(C4CC4)nc23)ccn1             8.80

Query string: Any idea what its pIC50 is? The molecule is `CC(=O)Nc1cc(Nc2nc(-c3ccccn3)nc3[nH]cnc23)ccn1`
Result string: 9.05

Query string: `COCCC(=O)Nc1cc(Nc2nc(-c3cccc(C(F)(F)F)n3)nc3[nH]cnc23)ccn1` ?
Result string: 8.96

Query string: How about `CC(=O)Nc1cc(Nc2nc(-c3cccc(C(F)F)n3)nc3[nH]cnc23)ccn1` ?
Result string: 9.14

Query string: For `CC(=O)Nc1cc(Nc2nc(-c3cccc(C)n3)nc3[nH]cnc23)ccn1` then?
Result string: 9.44

Query string: Same read-out for `CC(=O)Nc1nccc(Nc2nc(-c3cccc(C(F)(F)F)n3)nc3[nH]cnc23)c1F` ?
Result string: 8.05

---

- system-under-test: HIS-TGFβR1 T204D (Homo sapiens, UniProt P36897, T204D)
- assay-method-text: HTRF probe displacement assay, TGFβR1 HIS T204D
- applied-conditions: 1 nM HIS-TGFβR1 T204D, labeled probe at Kd, 1 hour at room temperature
Output Met for records whose IC50 is lower than 0.5 nM, Not met for records at or above 0.5 nM.

> print(dat)
                                   molecule  cat
1  Fc1cnccc1Nc1nc(-c2cccc(C(F)F)n2)nc2[nH]cnc12  Met

Query string: Regarding `CC(=O)Nc1cc(Nc2nc(-c3ccc(F)c(C)n3)nc3[nH]cnc23)ccn1` , kindly confirm whether its IC50 is beneath 0.5 nM.
Result string: Met

Query string: Similarly, `CC(=O)Nc1cc(Nc2nc(-c3cccc(C(F)(F)F)n3)nc3[nH]c(C)nc23)ccn1` ?
Result string: Not met
